- System: johnsongrass (Sorghum halepense, SORHA)
- Experiment Summary: Greenhouse herbicide screen, post-emerge application, phytotoxicity rating
- Type: in vivo
- Run Parameters: POST emergent, 250 g ai/ha, 14 days after application, scale 0-100
Reported Property: phytotoxicity rating SORHA

CC(=O)OC(=NN1C(C)CCCC1C)c1cc(-n2c(=O)cc(C(F)(F)F)n(C)c2=O)c(F)cc1Cl (centres unmarked)	80
CC1CCCC(C)N1NC(=O)c1cc(-n2c(=O)cc(C(F)(F)F)n(C)c2=S)c(F)cc1Cl (centres unmarked)	30
COC(=NN=C(C(C)(C)C)C(C)(C)C)c1cc(-n2c(=O)cc(C(F)(F)F)n(C)c2=O)c(F)cc1Cl	100
Cn1c(C(F)(F)F)cc(=O)n(-c2cc(C(=O)NN(Cc3ccccc3)Cc3ccccc3)c(Cl)cc2F)c1=O	100
CN1CCN(NC(=O)c2cc(-n3c(=O)cc(C(F)(F)F)n(C)c3=S)c(F)cc2Cl)CC1	0
Cn1c(C(F)(F)F)cc(=O)n(-c2cc(C(=O)NN3CCCC3)c(Cl)cc2F)c1=O	80
CN(NC(=O)c1cc(-n2c(=O)cc(C(F)(F)F)n(C)c2=O)c(F)cc1Cl)c1ccccc1	99
Cn1c(C(F)(F)F)cc(=O)n(-c2cc(C(=O)NN=C(c3ccccc3)c3ccccc3)c(Cl)cc2F)c1=O	15
CC(=O)OC(=NN(C)C)c1cc(-n2c(=O)cc(C(F)(F)F)n(C)c2=O)ccc1Cl	90
CN(N=C(C(C)(C)C)C(C)(C)C)C(=O)c1cc(-n2c(=O)cc(C(F)(F)F)n(C)c2=O)c(F)cc1Cl	95
CC1CCCC(C)N1N=C(OC(=O)C(Cl)Cl)c1cc(-n2c(=O)cc(C(F)(F)F)n(C)c2=O)c(F)cc1Cl (centres unmarked)	65
